# Test system: phospho-ERK in melanoma derived WM-266-4 cells
# assay: Mechanistic cellular assay for Raf kinase activity (phospho-ERK, Bio-Plex)
# Assay type: cell-based
# details: Homo sapiens, treated 1-2 hr at 37° C., serum free medium, read-out: pERK EC50

molecule: CCn1cnc2cnc(C(=O)N[C@H](C)c3cnc(Nc4ccc(C(F)(F)F)cc4)cn3)cc21
EC50: ≤ 100 nM
//
molecule: COc1nc(C(C)(C)C)ncc1Nc1ncc(C(C)NC(=O)c2cc3c(cn2)ncn3C)s1 (stereo not shown)
EC50: ≤ 100 nM
//
molecule: CC(NC(=O)c1cc2c(cn1)ncn2C)c1cnc(Nc2ccc(Cl)cc2)s1 (stereo not shown)
EC50: 100 to 1000 nM
//
molecule: CC(=N)Nc1nc2cnc(C(=O)NC(C)c3cnc(Nc4ccc(C(F)(F)F)cc4)s3)cc2n1C (stereo not shown)
EC50: 1000 to 10000 nM
//
molecule: CC(NC(=O)c1cc2c(cn1)ncn2C(C)(C)C)c1cnc(Nc2ccc(C(F)(F)F)cc2)s1 (stereo not shown)
EC50: ≤ 100 nM
//
molecule: Cc1nc2cnc(C(=O)NC(C)c3cnc(Nc4ccc(C(F)(F)F)cc4)s3)cc2n1C (stereo not shown)
EC50: 100 to 1000 nM
//
molecule: CC(NC(=O)c1cc2c(cn1)ncn2C1CN(C(C)C)C1)c1cnc(Nc2ccc(C(F)(F)F)cc2)cn1 (stereo not shown)
EC50: 100 to 1000 nM
//
molecule: CC(NC(=O)c1cc2c(cn1)ncn2C)c1cnc(Nc2ccc(F)c(C(C)(C)C(F)(F)F)c2)s1 (stereo not shown)
EC50: ≤ 100 nM
//
molecule: CC(NC(=O)c1cc2c(cn1)ncn2C1CC1)c1cnc(Nc2ccc(C(F)(F)F)cc2)s1 (stereo not shown)
EC50: ≤ 100 nM
//
molecule: CC(NC(=O)c1cc2c(cn1)ncn2CCO)c1cnc(Nc2ccc(C(F)(F)F)cc2)s1 (stereo not shown)
EC50: 100 to 1000 nM
//
molecule: CC(NC(=O)c1cnc2ncccn12)c1cnc(Nc2ccc(C(F)(F)F)cc2)s1 (stereo not shown)
EC50: 1000 to 10000 nM
//
molecule: Cc1nc2cc(C(=O)N[C@H](C)c3ncc(C(=O)Nc4cc(C(F)(F)F)c(Cl)cn4)s3)ccc2n1CCO
EC50: 1000 to 10000 nM
//
molecule: C[C@@H](NC(=O)c1cnn(C)c1Cl)c1ncc(C(=O)Nc2cc(C(F)(F)F)c(Cl)cn2)s1
EC50: ≤ 100 nM
//
molecule: CNc1nc(C(C)(C)C)ncc1Nc1ncc(C(C)NC(=O)c2cc3c(cn2)ncn3C)s1 (stereo not shown)
EC50: 100 to 1000 nM
//
molecule: COc1cc(-c2ccc3c(C(=O)NC(C)c4ncc(C(=O)Nc5cc(C(F)(F)F)c(Cl)cn5)s4)cnn3c2)ccn1 (stereo not shown)
EC50: 100 to 1000 nM
//
molecule: CC(NC(=O)c1cc2c(cn1)ncn2C)c1cnc(Nc2cccc(S(=O)(=O)C(F)(F)F)c2)cn1 (stereo not shown)
EC50: ≤ 100 nM

---

# System: phospho-ERK in melanoma derived WM-266-4 cells
# assay: Mechanistic cellular assay for Raf kinase activity (phospho-ERK, Bio-Plex)
# Type: cell-based
# details: Homo sapiens, treated 1-2 hr at 37° C., serum free medium, read-out: pERK EC50
quantityMeasured: EC50

molecule: C[C@@H](NC(=O)c1cn[nH]c1-c1ccccc1)c1ncc(C(=O)Nc2cc(C(F)(F)F)c(Cl)cn2)s1
testedSystem: phospho-ERK in melanoma derived WM-266-4 cells
reportedValue: 0.1 to 1 µM

molecule: CC(NC(=O)c1cccc(N2CCOCC2)c1)c1ncc(C(=O)Nc2cc(C(F)(F)F)c(Cl)cn2)s1 (stereo not shown)
testedSystem: phospho-ERK in melanoma derived WM-266-4 cells
reportedValue: 1 to 10 µM

molecule: C[C@@H](NC(=O)c1cnn2c1CCCC2)c1ncc(C(=O)Nc2cc(C(F)(F)F)c(Cl)cn2)s1
testedSystem: phospho-ERK in melanoma derived WM-266-4 cells
reportedValue: ≤ 0.1 µM

molecule: Cc1nc2cc(C(=O)N[C@H](C)c3ncc(C(=O)Nc4cc(C(F)(F)F)c(Cl)cn4)s3)ccc2[nH]1
testedSystem: phospho-ERK in melanoma derived WM-266-4 cells
reportedValue: 0.1 to 1 µM

molecule: C[C@@H](NC(=O)c1c[nH]cn1)c1ncc(C(=O)Nc2cc(C(F)(F)F)c(Cl)cn2)s1
testedSystem: phospho-ERK in melanoma derived WM-266-4 cells
reportedValue: 1 to 10 µM

molecule: CC(C)Cn1cnc2cnc(C(=O)NC(C)c3cnc(Nc4ccc(C(F)(F)F)cc4)cn3)cc21 (stereo not shown)
testedSystem: phospho-ERK in melanoma derived WM-266-4 cells
reportedValue: 0.1 to 1 µM

molecule: CC(NC(=O)c1cc2c(cn1)ncn2C)c1cnc(Nc2cccc(C(F)(F)F)c2)s1 (stereo not shown)
testedSystem: phospho-ERK in melanoma derived WM-266-4 cells
reportedValue: 0.1 to 1 µM
